test system: MDA-N; experiment: NCI tumour cell line growth inhibition, 48 h
# TGI per entry
Property Label: TGI (µM)

>>> print(df.to_string())
                                    molecule  tested_on  property_label  units_symbol  comparison_symbol  recorded_measurement
 0  Cc1cc(Cl)ccc1OCC(=O)Oc1c(Cl)c(Cl)c(Cl)c(Cl)c1Cl      MDA-N             TGI            µM                  =                  74.5
 1  CCOC(=O)C1C(=O)CC(C)(O)C(C(=O)OCC)C1c1ccc(O)c(OC)c1 (centres undefined)      MDA-N             TGI            µM                  >                   100
 2     O=c1[nH]ncc2[nH]c3c(c12)CCCc1ccccc1-3      MDA-N             TGI            µM                  =                  98.8
 3  COC(=O)[C@@H]1C[C@H]2[C@H](c3ccccc3Br)[C@@H](OC(C)=O)[C@@H](OCc3ccccc3)ON2O1      MDA-N             TGI            µM                  >                   100
 4        CCOC(=O)c1c2ccccc2n2c(=O)n(C)nnc12      MDA-N             TGI            µM                  >                   100
 5  COc1cccc(N2CCc3c(C)c(C#N)c4nc5ccccc5n4c32)c1      MDA-N             TGI            µM                  >                   100
 6  O=C(CCNC(=O)OCc1ccccc1)OCCCNC(=O)OCc1ccccc1      MDA-N             TGI            µM                  >                   100
 7  CC(C)C(OC(=O)c1cc(NC(=S)c2ccccc2)ccc1Cl)C(C)C      MDA-N             TGI            µM                  =                  39.8
 8  C1CSCCSS[C@@H]2CCCCC2SC1 (some centres undefined)      MDA-N             TGI            µM                  >                   100
 9         O=C(/C=C/c1ccc(O)c(O)c1)Oc1ccccc1      MDA-N             TGI            µM                  >                    81
10   Cc1ccc2c(c1)C(=O)C1(C2)Cc2ccc(C)cc2C1=O      MDA-N             TGI            µM                  >                   100
11                 CC1=CC(=O)c2cccc(O)c2C1=O      MDA-N             TGI            µM                  =                  3.34
12  COc1ccc(C(F)(F)F)cc1NC(=O)O/N=C(/Cl)C(C)C      MDA-N             TGI            µM                  =                  32.4
13  Fc1ccc(C(OCCN2CC3CC2CN3CCCc2ccccc2)c2ccc(F)cc2)cc1 (centres undefined)      MDA-N             TGI            µM                  =                    19
14  OC(CCN1CCN(CCOC(c2ccc(F)cc2)c2ccc(F)cc2)CC1)c1ccccc1 (centres undefined)      MDA-N             TGI            µM                  =                  28.5
15  N=C(N)SC1c2ccccc2-c2cc([N+](=O)[O-])ccc21 (centres undefined)      MDA-N             TGI            µM                  =                  10.9
16    O=C(c1cccs1)N(C(=S)OCc1ccccn1)c1ccccc1      MDA-N             TGI            µM                  >                   100
17  CCCC/C=C1\CCC(CN2CCOCC2)C1=O (centres undefined)      MDA-N             TGI            µM                  =                  22.7
18               Cc1ccc(-c2n[nH]c(=O)n2N)cc1      MDA-N             TGI            µM                  >                   100

###

# TGI per entry
system: SK-MEL-5 melanoma; assay: NCI tumour cell line growth inhibition, 48 h
Property Label: TGI

>>> print(df.to_string())
                              smiles_record          tested_on  property_label  recorded_measurement
0                     CC[O+]=c1cccc2ssnc1-2  SK-MEL-5 melanoma             TGI              > 100 µM
1  COc1ccc(-n2c(C)nc3ccc(N=Cc4ccccc4)cc3c2=O)cc1  SK-MEL-5 melanoma             TGI              > 100 µM
2  Cc1nnc2nc(-c3ccc(Cl)cc3Cl)cc(-c3ccc(Cl)cc3)n12  SK-MEL-5 melanoma             TGI              > 100 µM
3         COc1cccc(C(=O)O)c1Cc1cccc2ccccc12  SK-MEL-5 melanoma             TGI              > 100 µM
4  O=c1c2cc(-c3ccccc3)sc2nc2sc(-c3ccccc3)nn12  SK-MEL-5 melanoma             TGI              > 100 µM

###

tested on: SF-268 CNS; assay: NCI tumour cell line growth inhibition, 48 h
# TGI per entry
Property Label: TGI

Compound	Tested On	Recorded Measurement
CC(C)[C@H](COC(C)(C)C)N=CN1CSc2ccccc21	SF-268 CNS	> 100 µM
CC(C)(C)c1cc2c(OP(c3ccccc3)c3ccccc3)c(c1)Cc1cc(C(C)(C)C)cc(c1OP(c1ccccc1)c1ccccc1)Cc1cc(C(C)(C)C)cc(c1OP(c1ccccc1)c1ccccc1)Cc1cc(C(C)(C)C)cc(c1OP(c1ccccc1)c1ccccc1)C2	SF-268 CNS	> 50 µM
Cc1ccc(S(=O)(=O)NC(C)C(=O)O)cc1 (stereo not given)	SF-268 CNS	> 100 µM
O=C(c1cccs1)N(C(=S)OCc1ccccn1)c1ccccc1	SF-268 CNS	> 100 µM
CCOC(=O)c1c(N2CCOCC2)[nH]c(=O)c(C(c2ccc(N(C)C)cc2)c2c(O)c(C(=O)OCC)c(N3CCOCC3)[nH]c2=O)c1O	SF-268 CNS	> 100 µM
N=c1nc(N)nc(N)n1-c1ccc(S(N)(=O)=O)cc1	SF-268 CNS	> 100 µM
O=C(Nc1ccccc1)N1CC(CN2CCN(c3ccccc3)CC2)OC1=O (stereo not given)	SF-268 CNS	> 100 µM
COc1ccc(/C=C2/CCOC2=O)cc1	SF-268 CNS	> 100 µM
COc1cc(C(CN)N(C)C)cc(OC)c1OC (stereo not given)	SF-268 CNS	> 100 µM
CCOC(=O)NC(=O)c1cn(-c2ccc(CCOC(=O)CCCCCCCCC(=O)OCCc3ccc(-n4cc(C(=O)NC(=O)OCC)c(=O)[nH]c4=O)cc3)cc2)c(=O)[nH]c1=O	SF-268 CNS	> 100 µM

###

# TGI per entry
test system: OVCAR-4 ovarian; experiment: NCI tumour cell line growth inhibition, 48 h
Property Label: TGI (µM)

In [3]: df
Out[3]:
                                   molecule  units_symbol  comparison_symbol  recorded_measurement
0  C#CCCCCC#CC1CCCC1C1=CC(=O)c2ccccc21 (centres undefined)            µM                  =                  23.9
1  COc1ccc(/C=C/c2cc(=O)cc(/C=C/c3ccc(OC)c(O)c3)o2)cc1O            µM                  =                  9.77
2  COc1cc(C(CN)N(C)C)cc(OC)c1OC (centres undefined)            µM                  >                   100
3  COc1cc(/C=C\c2cc(/C=C\c3ccc(O)c(OC)c3)n(C(=O)Nc3ccc(C(F)(F)F)cc3)n2)ccc1O            µM                  =                  52.7
4  CP(=O)(CCSc1ccccc1)c1ccccc1 (centres undefined)            µM                  >                   100
5  CCCCCCCCCCCCCCCCCCNc1ccn(C2OC(COP(=O)(O)OCCCCCCCCCCCCCCCC)C(O)C2O)c(=O)n1 (centres undefined)            µM                  >                   100
6  CCOc1ccc2c(-c3ccnc(Nc4cccc(C(F)(F)F)c4)n3)cnn2n1            µM                  >                    25
7  CCCC/C=C1\CCC(CN2CCOCC2)C1=O (centres undefined)            µM                  =                  36.1
8  COC(=O)c1ccccc1C1CN=NC12Cc1c(C)c3c(c(C)c1C2=O)CCC3 (centres undefined)            µM                  >                   100
